Data provenance is patent US11931431B2.

- Test system: PSMA^+ PC-3 PIP tumors
- Protocol: MicroPET/CT imaging of mice transplanted with prostate cancer cell lines
- Type: in vivo, nude mouse
- Stated Conditions: 20 min after injection
- Method: A tumor model was prepared by subcutaneously injecting PSMA^+ PC-3 PIP cells (a human prostate cancer cell line) to the right side of the nude mouse hind leg. […] The obtained PET/CT image results were quantitatively analyzed using Inveon™ Research Workplace (IRW). FIGS. 1, 2, 3, and 4 are graphs showing the quantitative analysis results of MicorPET/CT images for [^68Ga]1e, [^68Ga]1g, [^68Ga]1h, and [^68Ga]1k in % injected dose (ID)/g, and summarized in Tables 3, 4, 5, and 6, respectively.
Outcome Measure: intake of mouse organ: Kidney (% ID/g)

The following compounds have reported results that may help.
[[record]]
compound = "O=C(O)CCC(NC(=O)NC(CCCCN(CC(=O)O)C(=O)COCCOCCNC(=O)CN1CCN2CCN3CCN(CC1)CC(=O)[O][68Ga]([O]C(=O)C2)[O]C(=O)C3)C(=O)O)C(=O)O (stereo not shown) [[^68Ga]1e]"
value_unit = "% ID/g"
val = 10.96

[[record]]
compound = "O=C(O)CCC(NC(=O)NC(CCCCN(CC(=O)O)C(=O)COCCNC(=O)C(CCCCNC(=O)CCCc1ccc(I)cc1)NC(=O)CN1CCN2CCN3CCN(CC1)CC(=O)[O][68Ga]([O]C(=O)C2)[O]C(=O)C3)C(=O)O)C(=O)O (stereo not shown) [[^68Ga]1k]"
value_unit = "% ID/g"
val = 11.21


[A] O=C(O)CCC(NC(=O)NC(CCCCN(CC(=O)O)C(=O)COCCOCCNC(=O)C(CCCCNC(=O)CCCc1ccc(I)cc1)NC(=O)CN1CCN2CCN3CCN(CC1)CC(=O)[O][68Ga]([O]C(=O)C2)[O]C(=O)C3)C(=O)O)C(=O)O (stereo not shown) [[^68Ga]1h]
[B] Cc1ccc(CCCC(=O)NCCCCC(NC(=O)CN2CCN3CCN4CCN(CC2)CC(=O)[O][68Ga]([O]C(=O)C3)[O]C(=O)C4)C(=O)NCCOCCOCC(=O)N(CCCCC(NC(=O)NC(CCC(=O)O)C(=O)O)C(=O)O)CC(=O)O)cc1 (stereo not shown) [[^68Ga]1g]
A or B : whose intake of mouse organ: Kidney is greater? Identify your pick by its label.
B
(B: 19.80 % ID/g, A: 12.56 % ID/g)
